test: Metabolism of dihydrotestosterone in CN1013 cell line (Testosterone ELISA); conditions: human, cn1013 cells

- compound: "C[C@]12CCC(=O)C[C@@H]1CC[C@@H]1[C@@H]2CC[C@]2(C)[C@@H](O)CC[C@@H]12 [DHT, dihydrotestosterone]"
  half-life at 0.01 µM: "~1.1 h"
